- Test system: ANKA strain of P. berghei
- METHOD_DESCRIPTION: Single dose STI in vivo screen in infected mice
- Set-up: species or system Plasmodium berghei
- PROTOCOL_CONDITIONS: single 10 mg/kg sc in 3% ethanol and 7% Tween 80; untreated 6-7 days
Where a name gives a salt, the structure may show the parent alone.
REPORTED_ENDPOINT: Survival (days) 10 mg/kg sc
Enter your answer as a number in days; do not include the unit.

N=C(N)NN=C1CCC2(CC1)OOC1(O2)C2CC3CC(C2)CC1C3 (centres unmarked) [OZ172, hydrochloride]	10.3
O=C1c2ccccc2S(=O)(=O)N1C[C@H]1CC[C@]2(CC1)OOC1(O2)C2CC3CC(C2)CC1C3 (some centres unmarked) [OZ212]	8.0
CS(=O)(=O)NC[C@H]1CC[C@]2(CC1)OOC1(O2)C2CC3CC(C2)CC1C3 (some centres unmarked) [OZ257]	9.7
CC1(C)CC(NC2CCC3(CC2)OOC2(O3)C3CC4CC(C3)CC2C4)CC(C)(C)N1 (centres unmarked) [OZ171, dihydrochloride]	9.7
NC(=O)NC[C@H]1CC[C@]2(CC1)OOC1(O2)C2CC3CC(C2)CC1C3 (some centres unmarked) [OZ265]	11.7

## Task GET /values?readout=Survival (days) 10 mg/kg sc&item= N=C(N)NC[C@H]1CC[C@]2(CC1)OOC1(O2)C2CC3CC(C2)CC1C3 (some centres unmarked) [OZ237, hydrochloride]
## Result 6.7

## Task Follow-up item: O=C(Nc1ccc(Cl)cc1)N1CCC2(CC1)OOC1(O2)C2CC3CC(C2)CC1C3 (centres unmarked) [OZ192]
## Result 13.7

## Task Follow-up item: COC(=O)c1cncn1C[C@H]1CC[C@]2(CC1)OOC1(O2)C2CC3CC(C2)CC1C3 (some centres unmarked) [OZ223]
## Result 12.0
